assay.target: Porcine α-amylase (pancreatic α-amylase) (Sus scrofa, UniProt P00690)
Construct: purchased Sigma-Aldrich Co., St Louis, MO, USA
Sequence (P00690 16-511): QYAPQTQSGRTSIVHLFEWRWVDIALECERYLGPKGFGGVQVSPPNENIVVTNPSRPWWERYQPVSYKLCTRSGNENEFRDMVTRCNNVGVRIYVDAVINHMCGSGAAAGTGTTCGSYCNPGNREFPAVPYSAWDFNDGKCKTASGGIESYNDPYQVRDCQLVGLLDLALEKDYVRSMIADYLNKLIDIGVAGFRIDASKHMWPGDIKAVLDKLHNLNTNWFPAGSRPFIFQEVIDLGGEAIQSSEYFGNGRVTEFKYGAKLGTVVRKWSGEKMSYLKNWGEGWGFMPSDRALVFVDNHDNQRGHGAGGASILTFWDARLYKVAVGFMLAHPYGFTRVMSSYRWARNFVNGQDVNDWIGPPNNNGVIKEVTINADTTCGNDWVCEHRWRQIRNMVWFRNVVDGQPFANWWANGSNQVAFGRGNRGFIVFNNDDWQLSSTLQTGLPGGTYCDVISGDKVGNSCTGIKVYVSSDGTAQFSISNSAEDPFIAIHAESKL
method: Inhibition assay for amylase activity (starch/DNS)
Type: biochemical
condition.parameters: means of three experiments ± SD
pIC50: −log10 of the molar value.

- substance.smiles: "C=C(C=O)[C@@H]1CC[C@]2(C)CC[C@]3(C)[C@H](CC[C@@H]4[C@@]5(C)CCC(=O)C(C)(C)[C@@H]5CC[C@]43C)[C@@H]12"
  pIC50: 3.98
- substance.smiles: "CC1(C)C(=O)CC[C@]2(C)[C@H]3CC=C4[C@@H]5C[C@](C)(C(=O)O)CC[C@]5(C)CC[C@@]4(C)[C@]3(C)CC[C@@H]12"
  pIC50: 3.94
